- Test system: Streptococcus pyogenes SSI-9
- METHOD: Antibacterial activity assay of bead-derived peptides (three concentrations)
- Type: cell-based
- Design: key: +++: inhibition by the 640-fold diluted peptide solution; ++: inhibition by the 160-fold diluted solution; +: inhibition by the 40-fold diluted solution; -: no inhibition
- PARTICULARS: S. pyogenes, bead-derived peptide solution, three concentrations
Where a SMILES comes first, the peptide text is derived from it. [ ]: non-standard residue; d: D form. The star is where a group is joined. NHCH2CH2OH = OCCN*; For = O=C*
PROPERTY: antibacterial activity

| COMPOUND | PROPERTY | REPORTED MEASUREMENT |
| --- | --- | --- |
| CC(C)C[C@@H](NC(=O)[C@H](C)NC(=O)CNC(=O)[C@@H](NC=O)C(C)C)C(=O)N[C@@H](C)C(=O)N[C@H](CC(C)C)C(=O)N[C@H](C(=O)N[C@@H](C(=O)N[C@@H](Cc1c[nH]c2ccccc12)C(=O)N[C@@H](C(=O)N[C@@H](Cc1c[nH]c2ccccc12)C(=O)N[C@@H](C(=O)N[C@@H](Cc1c[nH]c2ccccc12)C(=O)N[C@H](CC(C)C)C(=O)N[C@@H](Cc1c[nH]c2ccccc12)C(=O)NCCO)C(C)C)[C@H](C)O)C(C)C)C(C)C [compound 2931] (For-VGA[dL]A[dL]V[dV]W[dT]W[dV]W[dL]W-NHCH2CH2OH) | antibacterial activity | + |
| CC(C)C[C@@H](NC(=O)[C@H](C)NC(=O)[C@H](NC(=O)[C@H](C)NC(=O)CNC(=O)[C@@H](NC=O)C(C)C)C(C)C)C(=O)N[C@H](C(=O)N[C@@H](C(=O)N[C@@H](Cc1c[nH]c2ccccc12)C(=O)N[C@@H](C(=O)N[C@@H](Cc1c[nH]c2ccccc12)C(=O)N[C@H](CC(C)C)C(=O)N[C@@H](Cc1c[nH]c2ccccc12)C(=O)N[C@@H](C(=O)N[C@@H](Cc1c[nH]c2ccccc12)C(=O)NCCO)[C@H](C)O)C(C)C)C(C)C)C(C)C [compound 12285] (For-VGA[dV]A[dL]V[dV]W[dV]W[dL]W[dT]W-NHCH2CH2OH) | antibacterial activity | - |
| CC(C)C[C@@H](NC(=O)[C@H](C)NC(=O)[C@H](NC(=O)[C@H](C)NC(=O)CNC(=O)[C@@H](NC=O)C(C)C)C(C)C)C(=O)N[C@H](C(=O)N[C@@H](C(=O)N[C@@H](Cc1c[nH]c2ccccc12)C(=O)N[C@@H](C(=O)N[C@@H](Cc1c[nH]c2ccccc12)C(=O)N[C@H](CC(C)C)C(=O)N[C@@H](Cc1c[nH]c2ccccc12)C(=O)N[C@@H](C(=O)N[C@@H](Cc1c[nH]c2ccccc12)C(=O)NCCO)C(C)C)C(C)C)[C@H](C)O)C(C)C [compound 13174] (For-VGA[dV]A[dL]V[dT]W[dV]W[dL]W[dV]W-NHCH2CH2OH) | antibacterial activity | - |
| CC(C)C[C@@H](NC(=O)[C@H](C)NC(=O)CNC(=O)[C@@H](NC=O)C(C)C)C(=O)N[C@@H](C)C(=O)N[C@@H](C(=O)N[C@H](C(=O)N[C@H](CC(C)C)C(=O)N[C@@H](Cc1c[nH]c2ccccc12)C(=O)N[C@@H](C(=O)N[C@@H](Cc1c[nH]c2ccccc12)C(=O)N[C@@H](C(=O)N[C@@H](Cc1c[nH]c2ccccc12)C(=O)N[C@@H](C(=O)N[C@@H](Cc1c[nH]c2ccccc12)C(=O)NCCO)[C@H](C)O)C(C)C)C(C)C)C(C)C)C(C)C [compound 11625] (For-VGA[dL]A[dV]V[dL]W[dV]W[dV]W[dT]W-NHCH2CH2OH) | antibacterial activity | - |

====

- PARTICULARS: cell viability/%
- Procedure: Each type of assay must be simplified and miniaturized to assess the activities of the library peptides in a 96-well format for the high-throughput screening. […] Mammalian cytotoxicity assay of bead-derived peptides . P388 cells were obtained from Institute of […] for 92 h, the numbers of viable cells were determined by […] at 37 °C. The absorbance of each well at 415 nm was measured using a Benchmark microplate reader (Bio-Rad). The cytotoxicities were evaluated as cell viability (%). […]
Where a SMILES comes first, the peptide text is derived from it. [ ]: non-standard residue; d: D form. The star is where a group is joined. NHCH2CH2OH = OCCN*; For = O=C*
PROPERTY: viability (%)

| MOLECULE | PROPERTY | REPORTED MEASUREMENT |
| --- | --- | --- |
| CC(C)C[C@@H](NC(=O)[C@H](Cc1c[nH]c2ccccc12)NC(=O)[C@H](NC(=O)[C@@H](NC(=O)[C@H](NC(=O)[C@H](C)NC(=O)[C@H](NC(=O)[C@H](C)NC(=O)CNC(=O)[C@@H](NC=O)C(C)C)[C@H](C)O)C(C)C)C(C)C)C(C)C)C(=O)N[C@@H](Cc1c[nH]c2ccccc12)C(=O)N[C@@H](C(=O)N[C@@H](Cc1c[nH]c2ccccc12)C(=O)N[C@@H](C(=O)N[C@@H](Cc1c[nH]c2ccccc12)C(=O)NCCO)C(C)C)C(C)C [compound 629] (For-VGA[dT]A[dV]V[dV]W[dL]W[dV]W[dV]W-NHCH2CH2OH) | viability | 100 |

====

- PARTICULARS: cell viability/%
- Description: Each type of assay must be simplified and miniaturized to assess the activities of the library peptides in a 96-well format for the high-throughput screening. […] Mammalian cytotoxicity assay of bead-derived peptides . P388 cells were obtained from Institute of […] for 92 h, the numbers of viable cells were determined by […] at 37 °C. The absorbance of each well at 415 nm was measured using a Benchmark microplate reader (Bio-Rad). The cytotoxicities were evaluated as cell viability (%). […]
Where a SMILES comes first, the peptide text is derived from it. [ ]: non-standard residue; d: D form. The star is where a group is joined. NHCH2CH2OH = OCCN*; For = O=C*

| COMPOUND | VALUE UNITS | viability |
| --- | --- | --- |
| CC(C)C[C@@H](NC(=O)[C@H](C)NC(=O)CNC(=O)[C@@H](NC=O)C(C)C)C(=O)N[C@@H](C)C(=O)N[C@@H](C(=O)N[C@H](C(=O)N[C@@H](C(=O)N[C@@H](Cc1c[nH]c2ccccc12)C(=O)N[C@H](CC(C)C)C(=O)N[C@@H](Cc1c[nH]c2ccccc12)C(=O)N[C@@H](C(=O)N[C@@H](Cc1c[nH]c2ccccc12)C(=O)N[C@H](CC(C)C)C(=O)N[C@@H](Cc1c[nH]c2ccccc12)C(=O)NCCO)C(C)C)C(C)C)C(C)C)[C@H](C)O [compound 5555] (For-VGA[dL]A[dT]V[dV]W[dL]W[dV]W[dL]W-NHCH2CH2OH) | % | 100 |
| CC(C)C[C@@H](NC(=O)[C@H](C)NC(=O)[C@H](NC(=O)[C@H](C)NC(=O)CNC(=O)[C@@H](NC=O)C(C)C)C(C)C)C(=O)N[C@H](C(=O)N[C@H](CC(C)C)C(=O)N[C@@H](Cc1c[nH]c2ccccc12)C(=O)N[C@H](CC(C)C)C(=O)N[C@@H](Cc1c[nH]c2ccccc12)C(=O)N[C@H](CC(C)C)C(=O)N[C@@H](Cc1c[nH]c2ccccc12)C(=O)N[C@H](CC(C)C)C(=O)N[C@@H](Cc1c[nH]c2ccccc12)C(=O)NCCO)C(C)C [compound 527] (For-VGA[dV]A[dL]V[dL]W[dL]W[dL]W[dL]W-NHCH2CH2OH) | % | 5.9 |

====

Listing of recorded viability by entry.
- PARTICULARS: cell viability/%
- Method: Each type of assay must be simplified and miniaturized to assess the activities of the library peptides in a 96-well format for the high-throughput screening. […] Mammalian cytotoxicity assay of bead-derived peptides . P388 cells were obtained from Institute of […] for 92 h, the numbers of viable cells were determined by […] at 37 °C. The absorbance of each well at 415 nm was measured using a Benchmark microplate reader (Bio-Rad). The cytotoxicities were evaluated as cell viability (%). […]
Where a SMILES comes first, the peptide text is derived from it. [ ]: non-standard residue; d: D form. The star is where a group is joined. NHCH2CH2OH = OCCN*; For = O=C*

| COMPOUND | viability (%) |
| --- | --- |
| CC(C)C[C@@H](NC(=O)[C@H](C)NC(=O)CNC(=O)[C@@H](NC=O)C(C)C)C(=O)N[C@@H](C)C(=O)N[C@H](CC(C)C)C(=O)N[C@H](C(=O)N[C@@H](C(=O)N[C@@H](Cc1c[nH]c2ccccc12)C(=O)N[C@@H](C(=O)N[C@@H](Cc1c[nH]c2ccccc12)C(=O)N[C@H](CC(C)C)C(=O)N[C@@H](Cc1c[nH]c2ccccc12)C(=O)N[C@@H](C(=O)N[C@@H](Cc1c[nH]c2ccccc12)C(=O)NCCO)C(C)C)C(C)C)[C@H](C)O)C(C)C [compound 8043] (For-VGA[dL]A[dL]V[dT]W[dV]W[dL]W[dV]W-NHCH2CH2OH) | 100 |
| CC(C)C[C@@H](NC(=O)[C@H](Cc1c[nH]c2ccccc12)NC(=O)[C@H](NC(=O)[C@H](Cc1c[nH]c2ccccc12)NC(=O)[C@@H](CC(C)C)NC(=O)[C@H](Cc1c[nH]c2ccccc12)NC(=O)[C@H](NC(=O)[C@@H](NC(=O)[C@H](NC(=O)[C@H](C)NC(=O)[C@H](NC(=O)[C@H](C)NC(=O)CNC(=O)[C@@H](NC=O)C(C)C)C(C)C)C(C)C)C(C)C)C(C)C)[C@H](C)O)C(=O)N[C@@H](Cc1c[nH]c2ccccc12)C(=O)NCCO [compound 521] (For-VGA[dV]A[dV]V[dV]W[dL]W[dT]W[dL]W-NHCH2CH2OH) | 100 |
